Biological target: human adrenergic-α2A receptor (Homo sapiens)
Construct: expressed in transfected cells; host or cells: CHO cells, stably transfected; membrane preparation
Sequence (P08913 1-465): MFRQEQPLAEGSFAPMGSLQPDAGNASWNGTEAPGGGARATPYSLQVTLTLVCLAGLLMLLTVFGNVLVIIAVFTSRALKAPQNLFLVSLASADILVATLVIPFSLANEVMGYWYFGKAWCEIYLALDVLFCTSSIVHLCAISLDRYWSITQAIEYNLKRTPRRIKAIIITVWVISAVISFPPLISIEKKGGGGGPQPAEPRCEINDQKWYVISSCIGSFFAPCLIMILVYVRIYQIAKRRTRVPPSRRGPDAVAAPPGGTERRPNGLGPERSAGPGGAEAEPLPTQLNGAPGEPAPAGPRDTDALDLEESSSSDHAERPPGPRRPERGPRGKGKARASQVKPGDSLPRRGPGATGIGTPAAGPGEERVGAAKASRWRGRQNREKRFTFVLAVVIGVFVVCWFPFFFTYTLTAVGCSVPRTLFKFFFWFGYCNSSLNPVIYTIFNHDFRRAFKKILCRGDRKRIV
Assay: Radioligand binding experiment for hα2A-adrenergic receptor ([3H]raulwolscine)
Conditions: [3H]raulwolscine 1 nM, 60 minutes at 25° C.
The entries below are paired with their reported h-α2A pIC50.
Just the number, please, no unit after it.

sample_smiles=Cl.O=C(CCN1CCC(F)CC1)NCc1ccc(-n2ccnc(NC3CCN(Cc4ccc5ccccc5c4)CC3)c2=O)cc1F observation_type="h-α2A pIC50" assay_value=7.1

Quick check: h-α2A pIC50 of O=C(CC1CCCC1)NCc1ccc(-n2ccnc(NC3CCN(Cc4ccc5ccccc5c4)CC3)c2=O)cc1 ?
6.3

Field entry: O=c1c(NC2CCN(Cc3ccc4ccccc4c3)CC2)nccn1-c1ccc(CN2CCC(F)CC2)cc1
7.3

Field entry: COC(=O)CCNC(=O)NCc1ccc(-n2ccnc(NC3CCN(Cc4ccc5ccccc5c4)CC3)c2=O)cc1
6.3

Field entry: CN1CCN(Cc2ccc(-n3ccnc(NC4CCN(Cc5ccc6ccccc6c5)CC4)c3=O)cc2)CC1
6.9

Field entry: Cc1ccc(CNCc2ccc(-n3ccnc(NC4CCN(Cc5ccc6ccccc6c5)CC4)c3=O)cc2)o1.Cl.Cl
6.7

Field entry: C=CCCC(=O)NCc1ccc(-n2ccnc(NC3CCN(Cc4ccc5ccccc5c4)CC3)c2=O)cc1
6.5

Field entry: O=C(NCc1ccc(-n2ccnc(NC3CCN(Cc4ccc5ccccc5c4)CC3)c2=O)cc1)NCC1CCCCC1
6.2

Field entry: O=C(NCCCc1ccccc1)NCc1ccc(-n2ccnc(NC3CCN(Cc4ccc5ccccc5c4)CC3)c2=O)cc1
6.4

Field entry: O=c1c(NC2CCN(Cc3ccc4ccccc4c3)CC2)nccn1-c1ccc(CN2CCC(Oc3cccnc3)CC2)cc1
6.6

Field entry: CN(CCF)Cc1ccc(-n2ccnc(NC3CCN(Cc4ccc5ccccc5c4)CC3)c2=O)cc1
6.9

Field entry: CN(Cc1ccccc1)Cc1ccc(-n2ccnc(NC3CCN(Cc4ccc5ccccc5c4)CC3)c2=O)cc1
6.5

Field entry: O=C(NCc1ccc(-n2ccnc(NC3CCN(Cc4ccc5ccccc5c4)CC3)c2=O)cc1)Nc1cc(Cl)ccc1Cl
6.0

Field entry: CC(=O)NCCCC(=O)NCc1ccc(-n2ccnc(NC3CCN(Cc4ccc5ccccc5c4)CC3)c2=O)cc1
6.4

All values here come from patent US20080269251A1.
